ASSAYED SYSTEM: T1, ZFP SBS#1327 (synthetic)
T1 chain: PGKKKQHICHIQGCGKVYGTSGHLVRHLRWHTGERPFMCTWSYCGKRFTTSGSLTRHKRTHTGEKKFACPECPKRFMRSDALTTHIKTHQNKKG
EXPERIMENT SUMMARY: EMSA
SETTINGS: tags: MBP fusion
MEASURE: pKd
By convention, pKd is the negative base-10 log of a molar concentration.

## Task Which value of pKd has been reported for TTGGTTGGT (dsDNA) DNA 1: TTGGTTGGT DNA 2: ACCAACCAA in the records?
## Result 9.25
